- Protocol Description: Half life in dog at 0.38 mg/kg, iv or 1.5 mg/kg, po
- Type: ADME, organism-based, Canis lupus familiaris
- Condition: in vivo
Readout Name: half-life (min)
The figure you give is taken to be in min; do not add the unit.

Documented half-life of CC(C)N1C(=O)[C@H](NC(=O)[C@@H](Cc2ccccc2OC(F)(F)F)NC(=O)OC(C)(C)C)CCc2ccccc21 : 252

* * *

- Protocol Description: Cmax in dog at 0.38 mg/kg, iv or 1.5 mg/kg, po
- Type: ADME, organism-based, Canis lupus familiaris
- Condition: in vivo
Readout Name: Cmax (nM)
Give the number; nM is assumed, so skip it.

For this compound ( CC(C)N1C(=O)[C@H](NC(=O)[C@@H](Cc2ccccc2OC(F)(F)F)NC(=O)OC(C)(C)C)CCc2ccccc21 ), measured Cmax is 70

Recorded values, source ChEMBL document CHEMBL1140675.
